Reference source: patent US20250115613A1

system: A-431 cells; assay: Inhibition of A-431 cell proliferation; type: cell-based; conditions: Homo sapiens, 96 h, incubated 4 days
outcome measure: pIC50
In plain terms, pIC50 is the concentration in mol/L turned into minus its base-10 logarithm.

Qu. What value of pIC50 has been reported for the following compound? O=C(Cc1ccc(-c2ccc(OCCN3C[C@H]4COC[C@H]4C3)cc2Cl)cn1)NCc1ccccc1 [Compound I-30]
Ans. 8.04

Qu. GET /values?readout=pIC50&item= C[C@@H]1COCCN1CCOc1ccc(-c2ccc(CC(=O)NCc3ccccc3F)nc2)c(F)c1 [Compound I-31]
Ans. 7.96

Qu. Find the recorded pIC50 belonging to Cc1cc(OCCN2CC3(COC3)C2)ccc1-c1ccc(CC(=O)NCc2ccccc2)nc1 [Compound I-5] and report it.
Ans. 7.79

Qu. What value of pIC50 has been recorded for this entry: O=C(Cc1ccc(-c2ccc(OCCN3CCS(=O)(=O)CC3)cc2)cn1)NCc1ccccc1 [Compound I-3]
Ans. 7.84

Qu. Report pIC50 for O=C(Cc1ccc(-c2ccc(OCCN3CC4(COC4)C3)cc2F)cn1)NCc1ccccc1 [Compound I-4] please.
Ans. 8.06

Qu. // returns reported pIC50 for input O=C(Cc1ccc(-c2ccc(OCCNC3CN(C(=O)CC4CC4)C3)cc2)cn1)NCc1ccccc1 [Compound I-26]
Ans. 7.86

Qu. Find the recorded pIC50 belonging to Cc1cc(OCCN2C[C@H]3COC[C@H]3C2)cc(C)c1-c1ccc(CC(=O)NCc2ccccc2)nc1 [Compound I-29] and report it.
Ans. 7.35
